target: thrombin (endogenous, clotting assay in plasma or whole blood) (Homo sapiens, UniProt P00734;P00734 P00734:328-363,P00734:364-622); test: inhibition; PT at 10 uM
Record label 1 whenever activity is at 60 s or higher; record label 0 when lower.

binder="TCCCATCTTCTGTAGCCTAGGTTGGGTAGGGTGGTGGCTGAGGATCGATC (ssDNA) [AMX(398)_H5]" class_label="label 1"
binder="TCCCGATTGGAAAGCCTAGGATGGGTAGGGTGGTGGCTGAGGATCGATC (ssDNA) [AMX(399)_F12]" class_label="label 1"
binder="TCCCATGAACTCAGGGTAATTTTTTGGTGTGGGTGGCTGAGGATCGATC (ssDNA) [AMX(398)_D9]" class_label="label 1"
binder="TCCCCGATGTGTCAGCCTAGGGTGGTTAGGGTGGTGGCTGAGGATCGATC (ssDNA) [AMX(398)_C5]" class_label="label 1"
binder="TCCCGAGGGACGACGCCTAGGTTGGGTAGGGTGGTGGCTGAGGATCGATC (ssDNA) [AMX(399)_C11]" class_label="label 0"
